# System: angiogenesis genes in dermal microvascular endothelial cells
# protocolNotes: Real time RT-PCR of angiogenesis gene expression during endothelial tube formation
# Assay type: cell-based
# details: 1 μM SM, 24 hours
Measured Log2 fold-change of gene expression: Fgd5 accompanies every entry in the list below.
endpoint: Log2 fold-change of gene expression: Fgd5

> print(dat)
                                   compound                                    target  reportedmeasurement
1  O=C1C(=Cc2ccccc2)C(NC2CCCCC2)c2ccccc21 (stereo not drawn)  angiogenesis genes in dermal microvascular endothelial cells                 −1.2
2  COC(=O)C1CC(=O)C(C(=O)OC)CC1=O (stereo not drawn)  angiogenesis genes in dermal microvascular endothelial cells                 −1.5
3           CC1CCN(CC[S-])CC1.O.O.[Cl][Pt+]  angiogenesis genes in dermal microvascular endothelial cells                 −1.0
4  COc1ccc(CC2C(=O)NC(C)C(=O)N(C)C3Cc4ccc(cc4)Oc4cc(ccc4O)CC(C(=O)NC(C)C(=O)NC(C)C(=O)N2C)N(C)C3=O)cc1 (stereo not drawn)  angiogenesis genes in dermal microvascular endothelial cells                 −0.8
5                   CCC(=O)OCN1C(=O)C=CC1=O  angiogenesis genes in dermal microvascular endothelial cells                 −1.6
6  COc1cc2cc(c1Cl)N(C)C(=O)CC(OC(=O)C(C)C)C1(C)OC1C(C)C1CC(O)(NC(=O)O1)C(OC)/C=C/C=C(\C)C2 (stereo not drawn)  angiogenesis genes in dermal microvascular endothelial cells                 −0.8
